Target: Human HER3, endogenous, on human cancer cell lines (SK-Br-3, MCF7, BT-474) (human, UniProt P21860 20-1342)
Sequence (P21860 20-1342): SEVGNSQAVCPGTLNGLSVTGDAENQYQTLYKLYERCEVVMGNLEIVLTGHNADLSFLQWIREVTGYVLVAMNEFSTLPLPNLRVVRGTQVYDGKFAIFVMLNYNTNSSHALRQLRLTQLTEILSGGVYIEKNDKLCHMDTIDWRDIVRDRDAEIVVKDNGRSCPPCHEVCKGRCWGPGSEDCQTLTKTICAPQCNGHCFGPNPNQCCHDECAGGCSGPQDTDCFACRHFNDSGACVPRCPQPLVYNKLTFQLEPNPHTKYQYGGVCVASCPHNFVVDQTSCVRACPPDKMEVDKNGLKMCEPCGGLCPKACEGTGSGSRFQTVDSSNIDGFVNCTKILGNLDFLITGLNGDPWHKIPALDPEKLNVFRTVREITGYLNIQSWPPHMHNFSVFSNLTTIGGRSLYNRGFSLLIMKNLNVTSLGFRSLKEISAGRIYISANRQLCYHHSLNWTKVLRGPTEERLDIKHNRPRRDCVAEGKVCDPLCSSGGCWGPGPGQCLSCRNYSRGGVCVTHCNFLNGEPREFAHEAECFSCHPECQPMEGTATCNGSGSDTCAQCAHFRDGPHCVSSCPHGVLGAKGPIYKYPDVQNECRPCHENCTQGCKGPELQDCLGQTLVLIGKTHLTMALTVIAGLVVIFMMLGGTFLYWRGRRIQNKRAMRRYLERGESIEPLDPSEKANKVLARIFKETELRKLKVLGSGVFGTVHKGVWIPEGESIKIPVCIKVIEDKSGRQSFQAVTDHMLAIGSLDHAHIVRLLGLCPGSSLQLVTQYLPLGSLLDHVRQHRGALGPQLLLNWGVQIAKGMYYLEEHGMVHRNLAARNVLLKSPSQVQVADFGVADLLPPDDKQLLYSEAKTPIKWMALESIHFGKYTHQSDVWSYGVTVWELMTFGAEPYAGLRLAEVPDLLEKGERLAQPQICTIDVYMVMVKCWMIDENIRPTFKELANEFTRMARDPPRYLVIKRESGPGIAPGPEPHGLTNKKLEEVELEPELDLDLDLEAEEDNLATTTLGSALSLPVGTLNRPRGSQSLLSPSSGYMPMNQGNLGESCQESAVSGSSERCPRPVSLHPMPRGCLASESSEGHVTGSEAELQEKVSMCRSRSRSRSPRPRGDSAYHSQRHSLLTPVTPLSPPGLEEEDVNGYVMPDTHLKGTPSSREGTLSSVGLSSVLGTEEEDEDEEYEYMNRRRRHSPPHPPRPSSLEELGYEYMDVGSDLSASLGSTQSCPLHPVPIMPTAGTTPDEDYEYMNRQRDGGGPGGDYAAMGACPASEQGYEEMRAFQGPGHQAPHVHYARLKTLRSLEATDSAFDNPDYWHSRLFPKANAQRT
Assay: cell-based or functional assay
READOUT LABEL: SK-Br-3 proliferation % inhibition (%)
Please respond with the number in % and leave the unit unwritten.

Record excerpt, results attached:
{"BINDER": "MOR12509 (antibody, human IgG1, kappa, V domains shown, tested as IgG) VH: QVQLVQSGAEVKKPGESLKISCKGSGYSFTNSWVAWVRQMPGKGLEWMGIIYPGNSDTIYSPSFQGQVTISADKSISTAYLQWSSLKASDTAMYYCARVHIIQPPSAWSYNAMDVWGQGTLVTVSS VL: DIQMTQSPSSLSASVGDRVTITCRASQSITHYLNWYQQKPGKAPKLLIFGASNLQSGVPSRFSGSGSGTDFTLTISSLQPEDFATYYCQQAFVDPSTTFGQGTKVEIKR", "VALUE": 45}
{"BINDER": "MOR13755 (antibody, human IgG1, kappa, V domains shown, tested as IgG) VH: QVQLVQSGAEVKKPGESLKISCKGSGYSFTTYWVAWVRQMPGKGLEWMGIIYPGQSDTIYSPSFQGQVTISADKSISTAYLQWSSLKASDTAMYYCARVHIIQPPSAWSYNAMDVWGQGTLVTVSS VL: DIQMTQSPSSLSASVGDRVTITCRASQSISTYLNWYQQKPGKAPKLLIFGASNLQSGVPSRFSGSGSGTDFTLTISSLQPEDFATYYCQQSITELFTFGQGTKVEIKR", "VALUE": 52}
{"BINDER": "MOR13761 (antibody, human IgG1, kappa, V domains shown, tested as IgG) VH: QVQLVQSGAEVKKPGESLKISCKGSGYSFTQTWVAWVRQMPGKGLEWMGIIYPGQSDTIYSPSFQGQVTISADKSISTAYLQWSSLKASDTAMYYCARVHIIQPPSAWSYNAMDVWGQGTLVTVSS VL: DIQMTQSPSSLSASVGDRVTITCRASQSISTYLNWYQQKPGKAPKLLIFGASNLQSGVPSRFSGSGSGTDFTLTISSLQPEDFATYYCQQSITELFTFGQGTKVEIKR", "VALUE": 48}

Given MOR12510 (antibody, human IgG1, kappa, V domains shown, tested as IgG) VH: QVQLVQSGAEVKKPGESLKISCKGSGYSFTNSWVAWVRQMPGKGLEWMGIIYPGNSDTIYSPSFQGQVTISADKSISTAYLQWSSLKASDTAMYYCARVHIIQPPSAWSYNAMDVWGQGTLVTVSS VL: DIQMTQSPSSLSASVGDRVTITCRASQSISTYLNWYQQKPGKAPKLLIFGASNLQSGVPSRFSGSGSGTDFTLTISSLQPEDFATYYCQQDIDEPWTFGQGTKVEIKR , state its recorded SK-Br-3 proliferation % inhibition.
44

Fill in the blank: the reported SK-Br-3 proliferation % inhibition of MOR14535 (antibody, human IgG1, kappa, V domains shown, tested as IgG) VH: EVQLVQSGAEVKKPGESLKISCKGSGYSFTTTWVAWVRQMPGKGLEWMGIIYPGLSDTIYSPSFQGQVTISADKSISTAYLQWSSLKASDTAMYYCARVHIIQPPSAWSYNAMDVWGQGTLVTVSS VL: DIQMTQSPSSLSASVGDRVTITCRASQSISTYLNWYQQKPGKAPKLLIYGASNLQSGVPSRFSGSGSGTDFTLTISSLQPEDFATYYCQQSITELFTFGQGTKVEIKR is ____.
66

Origin of measurements: patent US20130273029A1
